Exercise: state measured IC50 for each of the compounds provided.
# measured.on: Recombinant human c-KIT kinase (Homo sapiens (Human))
# experiment.description: c-KIT kinase chemiluminescence assay (ADP-Glo)
# study.conditions: ATP 50 μM

Entry Cc1ccc(-c2noc([C@H]3C[C@@H]3F)n2)cc1NC(=O)c1cnc(-c2ccccc2)n1C [Example 14] : IC50 on Recombinant human c-KIT kinase (Homo sapiens (Human)) = 0.1 to 1 µM

Per the reported Recombinant human c-KIT kinase (Homo sapiens (Human)) data, Cc1ccc(-c2noc([C@H]3C[C@@H]3F)n2)cc1NC(=O)c1cnc2cnccn12 [Example 1] has IC50 of 0.1 to 1 µM

Record for Cc1ncc(-c2noc([C@H]3C[C@@H]3F)n2)cc1NC(=O)c1cnn2ccc(-c3c(C)nc(N)nc3C)cc12 [Example 171-10] under target or system Recombinant human c-KIT kinase (Homo sapiens (Human)): IC50 reported as > 1 µM

Form field, IC50 with Recombinant human c-KIT kinase (Homo sapiens (Human)), item Cc1ccc(-c2noc([C@H]3C[C@@H]3F)n2)cc1NC(=O)c1cnn2cc(-c3ccn(C(F)F)n3)ccc12 [Example 134] : < 0.1 µM

Recombinant human c-KIT kinase (Homo sapiens (Human)) data for Cc1ccc(-c2noc([C@H]3C[C@@H]3F)n2)cc1NC(=O)c1cnc(N2CCC3(CCC(=O)N3)CC2)s1 [Example 98-8] ; its IC50: > 1 µM

I looked up Cc1ccc(-c2noc([C@H]3C[C@@H]3F)n2)cc1NC(=O)c1cnn2ccc(-c3ccc(C#N)nc3C)cc12 [Example 171-16] and its IC50 for Recombinant human c-KIT kinase (Homo sapiens (Human)) was < 0.1 µM

Per the reported Recombinant human c-KIT kinase (Homo sapiens (Human)) data, Cc1ccc(-c2noc([C@H]3C[C@@H]3F)n2)cc1NC(=O)c1cnc(-c2ccc(-n3cccn3)cc2)o1 [Example 308-13] has IC50 of > 1 µM

----------
# Test system: M-07e cells
# experiment.description: M-07e cellular assay (SCF-mediated cell proliferation)
# Type: cell-based
# study.conditions: Homo sapiens, 72 hours, CellTiter Glo
Please provide measured EC50 for the entries that follow.

Measured EC50 of Cc1ccc(-c2noc([C@H]3C[C@@H]3F)n2)cc1NC(=O)c1cnn2cc(N3CC4(COC4)C3)ccc12 : < 0.1 µM

Given item Cc1ccc(-c2noc([C@H]3C[C@@H]3F)n2)cc1NC(=O)c1cnc(-c2ccc3cnn(C)c3c2)o1 , the value recorded as its EC50 is 0.1 to 1 µM

Entry Cc1ccc(-c2ncc(C3CC3)cn2)cc1NC(=O)c1cnn2ccc(N3CC4(C3)CC(O)(C(F)F)C4)cc12 — recorded EC50 = < 0.1 µM

Measured EC50, Cc1ccc(-c2noc([C@H]3C[C@@H]3F)n2)cc1NC(=O)c1cnc(N2CCC3(CCC(=O)N3)CC2)s1 : > 1 µM

----------
# measured.on: Recombinant human c-KIT kinase (Homo sapiens (Human), UniProt P10721)
# Sequence (P10721 26-976): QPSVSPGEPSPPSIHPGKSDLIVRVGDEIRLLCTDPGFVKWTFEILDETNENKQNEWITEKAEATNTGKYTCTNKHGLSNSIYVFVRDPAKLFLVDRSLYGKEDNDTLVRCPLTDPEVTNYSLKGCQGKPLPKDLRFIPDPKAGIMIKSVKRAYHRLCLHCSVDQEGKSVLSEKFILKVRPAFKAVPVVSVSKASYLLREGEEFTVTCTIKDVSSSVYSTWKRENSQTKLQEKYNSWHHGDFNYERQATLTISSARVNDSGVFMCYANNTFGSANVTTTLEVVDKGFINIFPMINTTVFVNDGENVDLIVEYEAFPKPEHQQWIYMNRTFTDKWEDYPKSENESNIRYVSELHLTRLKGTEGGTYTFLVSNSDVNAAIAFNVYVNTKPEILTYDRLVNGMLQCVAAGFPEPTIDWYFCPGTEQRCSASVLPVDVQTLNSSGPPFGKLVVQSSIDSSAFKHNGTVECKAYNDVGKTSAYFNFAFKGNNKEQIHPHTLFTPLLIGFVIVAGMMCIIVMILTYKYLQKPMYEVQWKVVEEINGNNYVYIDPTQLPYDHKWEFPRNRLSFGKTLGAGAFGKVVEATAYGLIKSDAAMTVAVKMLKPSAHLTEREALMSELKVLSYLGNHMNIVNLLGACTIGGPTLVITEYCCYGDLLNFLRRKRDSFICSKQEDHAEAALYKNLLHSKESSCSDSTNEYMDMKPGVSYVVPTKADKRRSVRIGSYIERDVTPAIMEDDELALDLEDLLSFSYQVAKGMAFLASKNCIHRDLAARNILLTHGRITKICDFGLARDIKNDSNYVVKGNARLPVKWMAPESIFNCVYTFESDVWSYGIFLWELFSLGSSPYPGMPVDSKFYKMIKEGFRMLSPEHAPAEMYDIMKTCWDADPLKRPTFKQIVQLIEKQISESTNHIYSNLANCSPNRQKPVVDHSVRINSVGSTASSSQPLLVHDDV
# experiment.description: c-KIT kinase chemiluminescence assay (ADP-Glo)
# study.conditions: ATP 50 μM
pIC50: −log10 of the molar value.
For each record, write down the corresponding pIC50.

Item Cc1ccc(-c2noc([C@H]3C[C@@H](OC(F)F)C3)n2)nc1NC(=O)c1cnn2ccc(N3CC4(COC4)C3)cc12 ; assay system Recombinant human c-KIT kinase (Homo sapiens (Human), UniProt P10721); pIC50 reported as 6.00 to 7.00

# pIC50 measured on Recombinant human c-KIT kinase (Homo sapiens (Human), UniProt P10721) for item Cc1ccc(-c2noc(C3CN(C(=O)OCc4ccccc4)C3)n2)cc1NC(=O)c1cnc(-c2ccc3c(c2)CC(=O)N3)o1 = < 6.00

For Cc1ccc(-c2noc([C@H]3C[C@@H]3F)n2)cc1NC(=O)c1cnc(-c2ccc3nccn3c2)o1 on Recombinant human c-KIT kinase (Homo sapiens (Human), UniProt P10721), measured pIC50 was 6.00 to 7.00

Query COC(=O)N1CC2(CC(c3nc(-c4ccc(C)c(NC(=O)c5cnn6ccc(N7CC8(C7)CC(O)(C(F)F)C8)cc56)c4)no3)C2)C1 on Recombinant human c-KIT kinase (Homo sapiens (Human), UniProt P10721); pIC50 returned: > 7.00

Lab note: compound Cc1ccc(-c2noc([C@H]3C[C@@H]3F)n2)cc1NC(=O)c1cnn2ccc(NC(=O)OC(C)(C)C)cc12 tested on Recombinant human c-KIT kinase (Homo sapiens (Human), UniProt P10721); recorded pIC50 was 6.00 to 7.00

Given the compound Cc1ccc(-c2nc3n(n2)CCN(C(=O)C2CC2)C3)cc1NC(=O)c1cnn2ccc(N3CC4(C3)CC(O)(C(F)F)C4)cc12 and test system Recombinant human c-KIT kinase (Homo sapiens (Human), UniProt P10721), the measured pIC50 is 6.00 to 7.00
